# system.name: Baculoviral IAP repeat-containing protein 2 [266-354] (Homo sapiens, UniProt Q13490)
pKi: −log10 of the molar value. Where a SMILES comes first, the peptide text is derived from it.

>  <compound>
CC(C)[C@H](NC(=O)[C@H](C)N)C(=O)N1CCC[C@H]1C(=O)N[C@@H](Cc1c[nH]c2ccccc12)C(=O)O [L-alanyl-L-valyl-L-prolyl-L-tryptophan] (H-AVPW-OH)

>  <pKi>
7.52

$$$$

---

# system.name: E3 ubiquitin-protein ligase XIAP [241-356] (Homo sapiens)
Where a SMILES comes first, the peptide text is derived from it.

>  <molecule>
CC(C)[C@H](NC(=O)[C@H](C)N)C(=O)N1CCC[C@H]1C(=O)N[C@@H](Cc1c[nH]c2ccccc12)C(=O)O [L-alanyl-L-valyl-L-prolyl-L-tryptophan] (H-AVPW-OH)

>  <Ki / nM>
50

$$$$

---

# system.name: Baculoviral IAP repeat-containing protein 3 [252-340] (Homo sapiens, UniProt Q13489)
# Construct: 252-340
# experiment.description: Fluorescence Polarization Affinity Measurements.
# details: pH 7.2; 22 °C
pKi: −log10 of the molar value. Where a SMILES comes first, the peptide text is derived from it.
Property: pKi; scope: individual compounds

>  <compound>
CN[C@@H](C)C(=O)N[C@H]1CCC[C@H]2SC[C@@H](C(=O)Nc3cc(C)nn3-c3ccccc3)N2C1=O

>  <pKi>
6.31

$$$$
>  <compound>
CC(C)[C@H](NC(=O)[C@H](C)N)C(=O)N1CCC[C@H]1C(=O)N[C@@H](Cc1c[nH]c2ccccc12)C(=O)O [L-alanyl-L-valyl-L-prolyl-L-tryptophan] (H-AVPW-OH)

>  <pKi>
7.15

$$$$
